- assay-procedure: Tissue distribution of oxymatrine (OM) and its metabolite matrine (M) in rats, LC-MS
- Format: in vivo, rat
- stated-conditions: po; rat lung; OM 54 mg/kg single administration; sampled at 20, 60, 240 min; n = 6; read-out: AUC of oxymatrine, Lung
observation-type: AUC (ng·h/mL)
Enter your answer as a number in ng·h/mL; do not include the unit.

IN: Reported AUC, molecule O=C1CCC[C@@H]2[C@H]3CCC[N+]4([O-])CCC[C@@H](CN12)[C@@H]34 (stereo partly shown) [OM, oxymatrine] : ____
OUT: 366

* * *

- assay-procedure: Tissue distribution of oxymatrine (OM) and its metabolite matrine (M) in rats, LC-MS
- Assay type: in vivo, rat
- stated-conditions: po; rat kidney; OM 54 mg/kg single administration; sampled at 20, 60, 240 min; n = 6; read-out: AUC of oxymatrine, Kidney
observation-type: AUC (ng·h/mL)
Enter your answer as a number in ng·h/mL; do not include the unit.

IN: Reported AUC, molecule O=C1CCC[C@@H]2[C@H]3CCC[N+]4([O-])CCC[C@@H](CN12)[C@@H]34 (stereo partly shown) [OM, oxymatrine] : ____
OUT: 69.7
